Values compiled from ChEMBL document CHEMBL1201862.

- System: MDA-MB-231
- method-description: NCI tumour cell line growth inhibition, 48 h
Calls of active or inactive are those of the source. No stated cut-off is given here; in the data, active = GI50 up to about 1.1 µM and inactive = higher.
measure-name: GI50

Recorded GI50, per entry:
{"compound": "CCn1c2ccccc2n2c(=O)c3c(c(C#N)c12)CCCC3", "GI50": "> 100 µM (inactive)"}
{"compound": "CCN(CC)c1ccc(/C=C(\\C#N)c2nc(N)nc(N3N=C(C)CC3(C)C)n2)cc1", "GI50": "13.6 µM (inactive)"}
{"compound": "Oc1cccc(-c2cn3cc(Cl)ccc3n2)c1", "GI50": "> 100 µM (inactive)"}
{"compound": "C=CC1(c2ccc(OC)cc2)OCCCO1", "GI50": "> 100 µM (inactive)"}
{"compound": "Nc1cc2nc(-c3ccccc3)cn2cn1", "GI50": "> 100 µM (inactive)"}
{"compound": "CC(=O)C(=C(c1ccccc1)c1ccccc1)c1ccccc1", "GI50": "> 100 µM (inactive)"}
{"compound": "Cc1ccc(NC(=O)CC(=O)n2nc(C)c(/N=N/c3ccc(S(=O)(=O)CCOS(=O)(=O)O)cc3)c2C)cc1", "GI50": "> 100 µM (inactive)"}
{"compound": "Cc1cc(Cl)nc(NC(=O)CSc2ccc(Cl)cc2)n1", "GI50": "> 100 µM (inactive)"}
{"compound": "N#CSCc1cccc(Nc2cc(=O)[nH]c(=O)[nH]2)c1", "GI50": "> 100 µM (inactive)"}
{"compound": "CN(C)CCNC(=O)c1cccc2c(NC(CS)C(=O)O)c3ccccc3nc12 (configuration not stated)", "GI50": "6.18 µM (inactive)"}

Dear colleague, could you send me GI50 for each of the items below? Thanks.
1. FC(F)(Sc1ncccn1)c1nc2ccccc2o1
2. O=C(NC(Nc1ccc(F)cc1)(C(F)(F)F)C(F)(F)F)C(C(F)(F)F)C(F)(F)F
3. COc1ccc(CC2C3=C(CCCC3)CCN2C)cc1 (configuration not stated)
4. C=C1C(=O)C2(C)OC2(C)C1C(=O)O (configuration not stated)
5. CCOC(=O)c1cnc2oc3ccc(O)cc3c2c1C
6. CN(CCc1ccc(Br)cc1)CCN1CCCCC1

Result ::
> 100 µM (inactive)
52 µM (inactive)
> 100 µM (inactive)
> 100 µM (inactive)
> 100 µM (inactive)
17.3 µM (inactive)

---

- Test system: T47D
- method-description: NCI tumour cell line growth inhibition, 48 h
Calls of active or inactive are those of the source. Rule as the data show it: active = GI50 up to about 1.1 µM and inactive = higher.
Could you please report measured GI50 for the items listed next?

{"compound": "C=CCN1C(=O)CC2[C@@H]3CCc4cc(O)ccc4C3CC[C@]2(C)C1=O (stereo partly specified)", "experimental-result": "> 10 µM (inactive)"}
{"compound": "CCOC(=O)c1cnc2oc3ccc(O)cc3c2c1C", "experimental-result": "38.5 µM (inactive)"}
{"compound": "CCO/C=C(\\C(=O)OC)S(=O)(=O)c1ccc(C)cc1", "experimental-result": "> 100 µM (inactive)"}
{"compound": "O=S(=O)(O)CCCc1cccc2ccccc12", "experimental-result": "> 100 µM (inactive)"}
{"compound": "O=c1c(-c2nc3ccccc3c3ccccc3c2=O)nc2ccccc2c2ccccc12", "experimental-result": "32.6 µM (inactive)"}

// for each compound below, give its GI50
1. C/C(=N\NC(N)=S)c1ccc2c(c1)Sc1ccccc1O2
2. O=C1CCc2cc3c(cc21)CC1(Cc2cc4c(cc2C1)CCCC4)C3
3. CC1(C)OC(C(=O)Nc2cc3c4ccccc4ccc3c3ccccc23)C(C(=O)N2CCCCC2)O1 (stereo unspecified)

Result ::
["6.61 µM (inactive)", "32.1 µM (inactive)", "6.62 µM (inactive)"]

Give me GI50 for each of these compounds, listed below.
1. O=C(c1ccccc1)c1c2ccccn2c2cccc[n+]12
2. COc1ccc(-c2cc(-c3ccccc3)nc(N)n2)c(O)c1
3. CC(=O)NNC(=S)N/C=C1/C(=O)Oc2ccccc2C1=O

Result ::
> 100 µM (inactive)
5.86 µM (inactive)
5.2 µM (inactive)

---

- System: OVCAR-3
- method-description: NCI tumour cell line growth inhibition, 48 h
Activity calls are given as the source filed them. No stated cut-off is given here; in the data, active = GI50 up to about 1.1 µM and inactive = higher.
// allowed return values: 1.0 (active), 0.0 (inactive)

Reference set (3 entries):
{"compound": "Cc1cc2c(cc1C)[n+]([O-])c(C(F)(F)F)c(C(=O)c1ccccc1)[n+]2[O-]", "class-assignment": 1.0}
{"compound": "c1ccc2c(c1)SC(=C1Sc3ccccc3S1)S2", "class-assignment": 0.0}
{"compound": "Cc1nc(N)c(N2CCN(S(=O)(=O)N(Cc3ccccc3)Cc3ccccc3)CC2)c(O)n1", "class-assignment": 0.0}

Query :: Recorded test call requested for CCOC(=O)CNC(=O)CNC(=O)CNC(=O)CNNc1c(OCc2ccccc2)c(=O)c1=O
Result :: 0.0

Query :: What outcome does the record of this test show for CC1=C(N2CC2)C(=O)C(CO)=C(N2CC2)C1=O ?
Result :: 1.0

Query :: Would you mind telling me which call this test gave COc1cc([C@@H]2c3cc4c(cc3[C@@H](NCc3cccc(F)c3)C3COC(=O)[C@@H]32)OCO4)cc(OC)c1O (some centres not stated) ?
Result :: 0.0

Query :: What call does the record list for CC(=O)O[C@H]1[C@H](O[C@H]2CC[C@]34C[C@]35CC[C@]3(C)[C@@H]([C@@]6(C)CC[C@@H](C(C)(C)O)O6)[C@@H](O)C[C@@]3(C)[C@@H]5C[C@H](O[C@@H]3O[C@H](CO)[C@@H](O)[C@H](O)[C@H]3O)[C@H]4C2(C)C)OC[C@@H](O)[C@@H]1O ?
Result :: 0.0

---

Exercise: state measured GI50 for each of the compounds provided.
- Test system: HL-60
- method-description: NCI tumour cell line growth inhibition, 48 h
Active and inactive are the calls of the source. Rule as the data show it: active = GI50 up to about 1.1 µM and inactive = higher.

{"compound": "CC(=O)O[C@H]1[C@H](O[C@H]2CC[C@]34C[C@]35CC[C@]3(C)[C@@H]([C@@]6(C)CC[C@@H](C(C)(C)O)O6)[C@@H](O)C[C@@]3(C)[C@@H]5C[C@H](O[C@@H]3O[C@H](CO)[C@@H](O)[C@H](O)[C@H]3O)[C@H]4C2(C)C)OC[C@@H](O)[C@@H]1O", "target-system": "HL-60", "experimental-result": "35.6 µM (inactive)"}
{"compound": "C(CCc1nnc2c(n1)CCCC2)Cc1nnc2c(n1)CCCC2", "target-system": "HL-60", "experimental-result": "> 100 µM (inactive)"}
{"compound": "C=C(CCOC)CCC1CCCCC(=C)[C@H]1OC(C)=O (stereo partly drawn)", "target-system": "HL-60", "experimental-result": "50.7 µM (inactive)"}
{"compound": "COc1cccc(-n2c3nc(=O)n(C)c(=O)c-3nc3ccccc32)c1", "target-system": "HL-60", "experimental-result": "6.01 µM (inactive)"}
{"compound": "O=C(N/N=C(\\C1=Nc2ccc(Cl)cc2NC1O)C(O)/C=C/c1ccccc1)c1ccncc1 (stereo not drawn)", "target-system": "HL-60", "experimental-result": "> 100 µM (inactive)"}

Working through the 3 compounds below one at a time, give GI50 for each.
1. CCOC(=O)c1cnc2c(ccc3ncccc32)c1NCCCN(CC)CC
2. CC1OC(OP(=O)(OCc2ccccc2)OCc2ccccc2)C(OC(=O)c2ccccc2)C(OC(=O)c2ccccc2)C1I (stereo not drawn)
3. CN/C=C(\C(=O)c1ccc(OC)c(OC)c1)c1ccc(OC)cc1

Result ::
14.6 µM (inactive)
20.7 µM (inactive)
11.3 µM (inactive)

---

- System: CAKI-1
- method-description: NCI tumour cell line growth inhibition, 48 h
The source made the active and inactive calls. No stated cut-off is given here; in the data, active = GI50 up to about 1.1 µM and inactive = higher.
measure-name: GI50

The following molecules have reported results that may help.
{"molecule": "N#Cc1cc([N+](=O)[O-])ccc1NC(=O)C(=O)C(C(=O)c1ccc2ccccc2c1)C1OCc2ccccc21 (configuration not stated)", "GI50": "9.4 µM (inactive)"}
{"molecule": "Cc1cc(C)nc(NS(=O)(=O)c2ccc(Nc3c4ccccc4nc4c(C(=O)N5CCN(CCO)CC5)ccc(Cl)c34)cc2)n1", "GI50": "> 100 µM (inactive)"}
{"molecule": "O=C1O[C@H]2[C@@H]3OC(=O)c4cc(O)c(O)c(O)c4-c4c(cc(O)c(O)c4O)C(=O)OC[C@H]2O[C@@H](OC(=O)c2cc(O)c(O)c(O)c2)[C@@H]3OC(=O)c2cc(O)c(O)c3c2[C@@H]2C1=CC(=O)C(O)(O)C2(O)O3 (some centres not stated)", "GI50": "14.1 µM (inactive)"}
{"molecule": "CCOC(=O)N1c2c(c3ccccc3n2C(=O)OCC)C(=O)C(OC)N1C(=O)OCC (configuration not stated)", "GI50": "28.8 µM (inactive)"}
{"molecule": "CC1=NN(c2ccccc2)C2(C1)C(Cl)C(=O)N2c1nc2ccccc2s1 (configuration not stated)", "GI50": "66.7 µM (inactive)"}
{"molecule": "COc1nc(NC2OC(COC(C)=O)C(OC(C)=O)C(OC(C)=O)C2OC(C)=O)c2c(OC(C)=O)cc(=O)oc2n1 (configuration not stated)", "GI50": "> 100 µM (inactive)"}

Next item in the queue.
The molecule identified as ClCCN(CC#CCCCC#CCN(CCCl)CCCl)CCCl registered its GI50 at 7.67 µM (inactive)
